# system: Stimulator of interferon genes protein (Homo sapiens)
# Sequence (Q86WV6 whole entry): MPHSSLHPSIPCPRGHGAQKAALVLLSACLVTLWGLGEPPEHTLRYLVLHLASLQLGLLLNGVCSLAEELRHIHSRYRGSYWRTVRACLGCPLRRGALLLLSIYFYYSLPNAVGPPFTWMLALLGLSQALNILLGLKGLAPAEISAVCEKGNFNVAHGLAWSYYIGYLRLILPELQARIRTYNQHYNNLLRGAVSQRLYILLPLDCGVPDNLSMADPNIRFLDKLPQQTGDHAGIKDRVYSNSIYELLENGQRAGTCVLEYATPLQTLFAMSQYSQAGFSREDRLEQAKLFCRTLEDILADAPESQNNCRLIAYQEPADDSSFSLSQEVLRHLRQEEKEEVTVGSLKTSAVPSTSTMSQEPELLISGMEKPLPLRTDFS
# assay_overview: Activation of STING in human THP-1-Dual cells assessed as induction of type I IFNs by measuring stimulation of NF-kappaB pathway incubated for 48 hrs by luciferase reporter gene assay
pEC50: −log10 of the molar value.
Would you mind labelling by pEC50? At or over 5 is t, under is f.

Hi team, for "Nc1ncnc2c1ncn2[C@H]1C[C@@H]2OP(=O)(O)OC[C@H]3O[C@@H](n4cnc5c(O)ncnc54)C[C@@H]3OP(=O)(O)OC[C@H]2O1" , is the recorded pEC50 at or above 5?
f

Hi team, for Nc1ncnc2c1ncn2[C@@H]1O[C@@H]2COP(=O)(S)O[C@H]3[C@@H](F)[C@H](n4cnc5c(O)ncnc54)O[C@@H]3COP(=O)(S)O[C@H]2[C@H]1F (stereo partly specified) , is the recorded pEC50 at or above 5?
t

Hi team, for "Nc1ncnc2c1ncn2[C@H]1C[C@@H]2OP(=O)(O)OC[C@H]3O[C@@H](n4cnc5c(O)ncnc54)[C@H](F)[C@@H]3OP(=O)(O)OC[C@H]2O1" , is the recorded pEC50 at or above 5?
f

Hi team, for "Nc1ncnc2c1ncn2[C@@H]1O[C@@H]2COP(=O)(O)O[C@H]3C[C@H](n4cnc5c(O)ncnc54)O[C@@H]3COP(=O)(O)O[C@H]2[C@H]1F" , is the recorded pEC50 at or above 5?
f

Hi team, for "Nc1ncnc2c1ncn2[C@@H]1O[C@@H]2COP(=O)(O)O[C@H]3[C@@H](F)[C@H](n4cnc5c(O)ncnc54)O[C@@H]3COP(=O)(O)O[C@H]2[C@H]1F" , is the recorded pEC50 at or above 5?
f
